study.system: NS3/4A protease gt 1b A156V (Hepatitis C virus genotype 1b, UniProt P26663, A1182V)
protocol.summary: HCV NS3 protease time-resolved fluorescence (TRF) assay, NS3/4A inhibitory activity (Ki), gt 1b A156V mutant
property: Ki (nM)
Number in nM, nothing else.

Previously resolved entries follow.
Incoming: Indicate its recorded Ki; the molecule in question is C=C[C@@H]1C[C@]1(NC(=O)[C@@H]1C[C@@H]2CN1C(=O)[C@H](C(C)(C)C)NC(=O)O[C@@]1(C)C[C@@H]1CCCCc1cccc3c1CN(C3)C(=O)O2)C(=O)NS(=O)(=O)C1CC1
Outgoing: 8.1

Incoming: Indicate its recorded Ki; the molecule in question is C=C[C@@H]1C[C@]1(NC(=O)[C@@H]1C[C@@H]2CN1C(=O)[C@H](C1CCCC1)NC(=O)O[C@]1(C)C[C@H]1CCCCCc1nc3cccc(OC)c3nc1O2)C(=O)NS(=O)(=O)C1CC1
Outgoing: 1.9

Incoming: Indicate its recorded Ki; the molecule in question is C=C[C@@H]1C[C@]1(NC(=O)[C@@H]1C[C@@H]2CN1C(=O)[C@H](C1CCCC1)NC(=O)O[C@@]1(C)C[C@@H]1CC/C=C/Cn1c(nc3cc(C)ccc3c1=O)O2)C(=O)NS(=O)(=O)C1CC1
Outgoing: 135

Incoming: Indicate its recorded Ki; the molecule in question is C=C[C@@H]1C[C@]1(NC(=O)[C@@H]1C[C@@H]2CN1C(=O)[C@H](C1CCCC1)NC(=O)O[C@]1(C)C[C@H]1CC/C=C/Cn1c(nc3cc(Cl)ccc3c1=O)O2)C(=O)NS(=O)(=O)C1CC1
Outgoing: 1.6

New cases:
Incoming: Indicate its recorded Ki; the molecule in question is C=C[C@@H]1C[C@]1(NC(=O)[C@@H]1C[C@@H]2CN1C(=O)[C@H](C1CCCC1)NC(=O)O[C@]1(C)CCC[C@H]1CCCCCc1nc3ccc(OC)cc3cc1O2)C(=O)NS(=O)(=O)C1CC1
Outgoing: 3.3
